# cell viability per record follows
- System: NOMO1
- assay: cell viability relative to DMSO control; higher = less cytotoxic
- condition-context: RPMI 5 mM glucose + 10% FBS; 48 h; 5.12 µM
parameter: cell viability (%)

1. CNC(=O)Nc1ccc(-c2nc(N3CC4CCC(C3)O4)c3cnn(C4CCC5(CC4)OCCO5)c3n2)cc1	72.2
2. OC(CN1CCN(c2cccc(Cl)c2)CC1)C(c1ccccc1)c1ccccc1 (centres undefined)	16.6
3. COC1=CC=C2CN(C)CC[C@@]34\C=C/[C@H](O)C[C@@H]3OC1=C24	126
4. CCN1CCCC1CNC(=O)c1cc([S+](N)(=O)[O-])ccc1OC (centres undefined)	119
5. C=CCc1ccc(O)c(-c2ccc(O)c(CC=C)c2)c1	51
6. C[C@@]1(C(=O)Nc2ccc(F)nc2)CCCN1c1nc(Nc2cc(C3CC3)[nH]n2)c2cccn2n1	62.9
7. N#C/N=C(\NCCCCCCOc1ccc(Cl)cc1)Nc1ccncc1	9.25
8. OCCn1cc(-c2cnc3nnn(Cc4ccc5ncccc5c4)c3n2)cn1	102
9. C[C@](N)(Cc1ccc(O)c(O)c1)C(=O)O	82.9

* * *

- System: SEM cells
- assay: cell viability relative to DMSO control; higher = less cytotoxic
- condition-context: RPMI 5 mM glucose + 10% FBS; 48 h; 0.00702 µM
parameter: cell viability (%)

1. CC/1=C(\O)C(=O)\C=C2/C1=C/C=C3\[C@@]2(C)CC[C@@]4(C)[C@@H]5C[C@@](C)(CC[C@]5(C)CC[C@]34C)C(O)=O	102
2. C[C@]12CC[C@H]3[C@@H](CCC/4=C/C(=O)CC[C@]34C)[C@@H]1CC[C@@H]2OC(=O)CCC5CCCC5	109
3. COc1cc(C)c(Sc2cnc(NC(=O)c3ccc(CNC(C)C(C)C)cc3)s2)cc1C(=O)N1CCN(C(C)=O)CC1 (centres undefined)	111
4. N[S+](=O)([O-])OC[C@@H]1C[C@@H](n2ccc3c(N[C@H]4CCc5ccccc54)ncnc32)C[C@@H]1O	119

* * *

- System: NOMO1
- assay: AUC of viability dose-response curve (% viability x log10 dose units); higher = less sensitive
- condition-context: RPMI 5 mM glucose + 10% FBS; 48 h
parameter: AUC of viability dose-response curve

1) N#C[C@H](O[C@@H]1O[C@H](CO[C@@H]2O[C@H](CO)[C@@H](O)[C@H](O)[C@H]2O)[C@@H](O)[C@H](O)[C@H]1O)c1ccccc1	435
2) Cn1cc(-c2ccc(F)c(C(F)(F)F)c2)nc1C1CCN(c2ncnc3[nH]ncc23)CC1	447
3) COc1ncc(-c2ccc3c(Nc4cc(Oc5cc(F)cc(F)c5)cc(C(=O)O)c4)c([S+](=O)([O-])NC4CC4)cnc3c2)c(OC)n1	440
4) CON(C)C(=O)N1/N=C(S[C@@]1(CCCN)C2=CC=CC=C2)/C3=CC(=CC=C3F)F	211
5) CC(NCCc1ccc(O)cc1)C(O)c1ccc(O)cc1 (stereo not drawn)	446
6) C#CCN[C@@H]1CCc2ccccc21.CS(=O)(=O)O	426
7) N=C1N[C@H]2[C@H](CS[C@H]2CCCCC(=O)O)N1	473
8) C[C@]12CCC\3=C\4CCC(=O)\C=C4CC[C@H]3[C@@H]1CC[C@@]2(O)CC#N	468

* * *

- System: NOMO1
- assay: cell viability relative to DMSO control; higher = less cytotoxic
- condition-context: RPMI 5 mM glucose + 10% FBS; 48 h; 0.000781 µM
parameter: cell viability (%)

1) CN1CCN(C(=O)O[C@H]2c3nccnc3C(=O)N2c2ccc(Cl)cn2)CC1	94.8
2) C[C@@H](O)[C@@H]1NC(=O)[C@H](CCCCN)NC(=O)[C@@H](Cc2c[nH]c3ccccc23)NC(=O)[C@H](Cc2ccccc2)NC(=O)[C@@H](NC(=O)[C@H](N)Cc2ccccc2)CSSC[C@@H](C(=O)N[C@H](CO)[C@@H](C)O)NC1=O	74.6
3) CC(NCCc1ccc(O)cc1)C(O)c1ccc(O)cc1 (configuration not stated)	113
4) O=C(Nc1cccnn1)N1CCC(=Cc2cccc(Oc3ccc(C(F)(F)F)cn3)c2)CC1	83.4
5) Cc1onc(-c2ccccc2)c1C(=O)N[C@@H]1C(=O)N2[C@@H]1SC(C)(C)[C@@H]2C(=O)[O-].[Na+]	112
6) CC(C)(C)[C@H](NC(=O)c1ccc(N)c(Cl)c1)C(=O)N1CCC[C@H]1C(=O)N[C@H](C#N)CC(=O)O	113
7) Nc1ncnc2c1nc(Cl)n2[C@@H]1O[C@H](CO)[C@@H](O)[C@H]1O	116
8) Cc1c[nH]c(-c2cnc(NCCNc3ccc(C#N)cn3)nc2-c2ccc(Cl)cc2Cl)n1	66.4
9) CCN1CCN(C(=O)Cc2ccc(Nc3ncc(F)c(Nc4ccc(C(=O)Nc5ccccc5Cl)cc4)n3)cc2)CC1	99.6
10) NC(=O)NO	83.9
11) COc1cc(C(=O)NS(=O)(=O)c2ccccc2C)ccc1Cc1cn(C)c2ccc(NC(=O)OC3CCCC3)cc12	77.7
12) COC1=CC=C(C=C1O)C/2=C/C(=O)C3=C(O2)C=C(O[C@@H]4O[C@H](CO[C@@H]5O[C@@H](C)[C@H](O)[C@@H](O)[C@H]5O)[C@@H](O)[C@H](O)[C@H]4O)C=C3O	112
13) COc1cc(/C=C/C(=O)O)ccc1O	84.9
14) Cc1noc(-c2ccc(CSCCC(=O)O)cc2)c1NC(=O)OC(C)c1ccccc1Cl (configuration not stated)	85.7
15) CC(C)Cc1ccc(C(C)C(=O)O)cc1 (configuration not stated)	79.4
16) COc1cc(O)c2c(c1)C(=O)c1cc(C)cc(O)c1C2=O	107
17) NC(=O)c1ncn([C@@H]2O[C@H](CO)[C@@H](O)[C@H]2O)c1O	122

* * *

- Tested on: P12-Ichikawa
- assay: cell viability relative to DMSO control; higher = less cytotoxic
- condition-context: HPLM + 10% dialyzed FBS; 48 h; 0.569 µM
Mark y only when cell viability stays strictly below 90%. Values equal to the cut-off are n.

1. C[C@H]1O[C@H](C[C@H](O)[C@@H]1O)O[C@H]2[C@@H](O)C[C@@H](O[C@@H]2C)O[C@H]3[C@@H](O)C[C@@H](O[C@@H]3C)O[C@H]4CC[C@@]5(C)[C@H](CC[C@@H]6[C@@H]5C[C@@H](O)[C@]7(C)[C@H](CC[C@]67O)C/8=C/C(=O)OC8)C4	y
2. OC[C@H]1O[C@@H]2[C@@H](OC\3=N\C(=N)\C=C/[N@@]23)[C@@H]1O	y
3. COC(=O)N1CC2(CC2)C[C@H](C(=O)NO)[C@H]1C(=O)N1CCN(c2ccccc2)CC1	y
4. C#CCN[C@@H]1CCc2ccccc21.CS(=O)(=O)O	n
5. O=C(Nc1cccnn1)N1CCC(=Cc2cccc(Oc3ccc(C(F)(F)F)cn3)c2)CC1	n
6. OCCn1cc(-c2cnc3nnn(Cc4ccc5ncccc5c4)c3n2)cn1	n
7. O.O.CCN1CCN(C(=O)N[C@H](C(=O)N[C@H]2[C@@H]3SC\C(=C(/N3C2=O)C(O)=O)CSC4=NN=N[N]4C)C5=CC=C(O)C=C5)C(=O)C1=O	n
8. CN(C)C1=C(Br)C=C(C=C1)C\2NC3=C(\C4=C2C(=O)CC(C)(C)C4)C5=CC=CC=C5C=C3 (stereo not drawn)	n
9. CC(C)[C@H](N)C(=O)OCCOC[N]1C=NC2=C1\N=C(N)/NC2=O	n
10. C=CCc1ccc(O)c(-c2ccc(O)c(CC=C)c2)c1	y
11. COc1ncc(-c2ccc3c(Nc4cc(Oc5cc(F)cc(F)c5)cc(C(=O)O)c4)c([S+](=O)([O-])NC4CC4)cnc3c2)c(OC)n1	n
12. CN(C)C(=O)C(CCN1CCC(O)(c2ccc(Cl)cc2)CC1)(c1ccccc1)c1ccccc1	n
13. Cc1nc(Nc2n[nH]c3c2CN(C(=O)N[C@H](CN(C)C)c2ccccc2)C3(C)C)c2sccc2n1	y
14. CCN1CCN(C(=O)Cc2ccc(Nc3ncc(F)c(Nc4ccc(C(=O)Nc5ccccc5Cl)cc4)n3)cc2)CC1	n
15. CC(C)(O)/C=C\C(=O)[C@](C)(O)[C@H]1[C@H](O)C[C@]2(C)[C@@H]3CC=C4[C@@H](C=C(O)C(=O)C4(C)C)[C@]3(C)C(=O)C[C@@]12C	y
16. CC[C@]1(O)C[C@@H]2CN(CCc3c([nH]c4ccccc34)[C@@](C(=O)OC)(c3cc4c(cc3OC)N(C)[C@H]3[C@@](O)(C(N)=O)[C@H](O)[C@]5(CC)C=CCN6CC[C@]43[C@@H]65)C2)C1	y
17. CNC(=O)[C@H](CC/1=C/N=C\2/C=C\C\C=C12)NC(=O)[C@H](CC(C)C)CC(=O)NO	n
18. CN1CCN(C(=O)O[C@H]2c3nccnc3C(=O)N2c2ccc(Cl)cn2)CC1	n
19. N#C[C@H](O[C@@H]1O[C@H](CO[C@@H]2O[C@H](CO)[C@@H](O)[C@H](O)[C@H]2O)[C@@H](O)[C@H](O)[C@H]1O)c1ccccc1	n
20. COc1cc(C)c(Sc2cnc(NC(=O)c3ccc(CNC(C)C(C)C)cc3)s2)cc1C(=O)N1CCN(C(C)=O)CC1 (stereo not drawn)	n
21. Cc1c(C)c2c(c(C)c1O)CCC(C)(COc1ccc(CC3SC(=O)NC3=O)cc1)O2 (stereo not drawn)	n
22. COc1cc(O)c2c(c1)C(=O)c1cc(C)cc(O)c1C2=O	n
23. OCc1ccc(-c2ccc(-c3ccc(CO)s3)o2)s1	n
24. COC1=CC=C(C=C1O)C/2=C/C(=O)C3=C(O2)C=C(O[C@@H]4O[C@H](CO[C@@H]5O[C@@H](C)[C@H](O)[C@@H](O)[C@H]5O)[C@@H](O)[C@H](O)[C@H]4O)C=C3O	n
25. Nc1ncnc2c1c(-c1cccc(OCc3ccccc3)c1)cn2C1CC(CN2CCCC2)C1 (stereo not drawn)	n
26. C[C@@]1(C(=O)Nc2ccc(F)nc2)CCCN1c1nc(Nc2cc(C3CC3)[nH]n2)c2cccn2n1	n
27. COC(=O)\C1=C\CCN(C)C1	n
